// values below are reported activation
- test.protocol: nonselective calcium activators in parental CHO-K1 cells, primary screen, counter-screen for M1 PAM project, cell-based, Fluo-8 calcium fluorescence, full deck, 1536-well (AID 602247);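 also: peak over basal fluorescence ratio in a 140 s read after ATP addition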
- conditions.used: parental CHO-K1, ATP EC20, Fluo-8 calcium fluorescence; at 3 µM; hits give high values; 0% at ATP EC20, 100% at ATP max
The whole screen tested about 360,000 compounds, of which about 80 (0.02%) were called active. The sample as a whole holds a higher share of actives than the screen did.
Give just the numeric value; % need not be written.

Before answering, review these 2 worked examples.
*Q* activation lookup needed for NC1=NC(=O)C2(COC(c3ccccc3Cl)OC2)S1 (stereo not drawn) , thanks.
*A* 19

*Q* activation lookup needed for `C/C(N)=C(\C#N)C(=O)NCCc1ccccn1` , thanks.
*A* 21.8

***
*Q* activation lookup needed for `Cc1ccc(-c2nnc(Nc3ccc(C(=O)N(C)C)cc3)c3ccccc23)cc1S(N)(=O)=O` , thanks.
*A* -6.44

*Q* activation lookup needed for `CN(C)CCCOc1ccc(-c2ccc3nccn3c2)cn1` , thanks.
*A* 15.7

*Q* activation lookup needed for `COCCCNS(=O)(=O)c1cccc(S(=O)(=O)c2cccc(S(=O)(=O)NCCCOC)c2)c1` , thanks.
*A* -13.2

*Q* activation lookup needed for `O=C(OCC(=O)N1CCCCCC1)c1ccc(Cl)nc1` , thanks.
*A* 21.8

*Q* activation lookup needed for `Cc1cc(C)cc(NC(=O)COC(=O)c2cc(C)oc2C)c1` , thanks.
*A* 9.08

*Q* activation lookup needed for `NC(=O)C1CCN(Cc2nc3c(Br)cc(Br)cc3c(=O)[nH]2)CC1` , thanks.
*A* 8.89

----------
- test.protocol: nonselective calcium activators in parental CHO-K1 cells, primary screen, counter-screen for M1 PAM project, cell-based, Fluo-8 calcium fluorescence, full deck, 1536-well (AID 602247);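 also: peak over basal fluorescence ratio in a 140 s read after ATP addition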
- conditions.used: parental CHO-K1, ATP EC20, Fluo-8 calcium fluorescence; at 3 µM; hits give high values; 0% at ATP EC20, 100% at ATP max
Hit rate of the full screen: of about 360,000 compounds, about 80 (0.02%) were called active. The entries come from a sample that favours actives as a whole.
// values below are reported activation

Before answering, review these 2 worked examples.
*Q* activation lookup needed for O=C(Nc1ccc(Br)cc1F)C1CC(=O)N(C2CCCCC2)C1 (stereo not given) , thanks.
*A* 9.78% (inactive)

*Q* activation lookup needed for `CCOc1ccccc1N1CCN(C(=S)Nc2ccc(S(N)(=O)=O)cc2)CC1` , thanks.
*A* 17.3% (inactive)

***
*Q* activation lookup needed for `COCCNC(=O)CSc1nc2c(n1-c1ccccc1)CCCC2` , thanks.
*A* 10.3% (inactive)

*Q* activation lookup needed for CC1(C)CC2CC(C)(CN2c2ncnc3ccc(Br)cc23)C1 (stereo not given) , thanks.
*A* 17.9% (inactive)

*Q* activation lookup needed for `CC(C)CC(=O)c1c[nH]c(C(=O)NCc2ccccc2)c1` , thanks.
*A* 0.92% (inactive)

----------
- test.protocol: nonselective calcium activators in parental CHO-K1 cells, primary screen, counter-screen for M1 PAM project, cell-based, Fluo-8 calcium fluorescence, full deck, 1536-well (AID 602247);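 also: peak over basal fluorescence ratio in a 140 s read after ATP addition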
- conditions.used: parental CHO-K1, ATP EC20, Fluo-8 calcium fluorescence; at 3 µM; hits give high values; 0% at ATP EC20, 100% at ATP max
In all, about 360,000 compounds went through this assay and about 80 (0.02%) were called active. Shown is part of a subset that was picked to be rich in actives.
value.type: activation (%)
Give just the numeric value; % need not be written.

*Q* activation lookup needed for `CCn1c(O)c(N=NC2=NC(=O)CS2)c2cc(C)ccc21` , thanks.
*A* -3.3

*Q* activation lookup needed for `O=C(c1ccc(=O)[nH]c1)N(Cc1ccco1)C1(C(=O)NC2CCCCC2)CCCCC1` , thanks.
*A* 7.15

*Q* activation lookup needed for CCC(C(=O)NC1CCCC1)N(C(=O)Cn1nnc(-c2ccc(C)o2)n1)c1ccc(OC)c(OC)c1 (stereo not given) , thanks.
*A* -0.54

***
*Q* activation lookup needed for CCC(C(=O)Nc1ccc(C(C)C)cc1)c1ccccc1 (stereo not given) , thanks.
*A* 7.1

*Q* activation lookup needed for `CN(C)/C(CN1CCCCC1)=C1\N=C(c2ccccc2)OC1=O` , thanks.
*A* 19.8
